Assay: MTT assay for cell viability, B16F10
Format: cell-based
Details: mouse, B16F10 melanoma cells, B16F10, 10 µM, ± SD
MEASURED_PROPERTY: viability at 48 h, 10 µM (%)

>>> number("Oc1ccc(C=NN=Cc2ccc(O)cc2O)c(O)c1")
60.1
